system-name: NLRP3 inflammasome (Homo sapiens, UniProt Q96P20)
Sequence (Q96P20 whole entry): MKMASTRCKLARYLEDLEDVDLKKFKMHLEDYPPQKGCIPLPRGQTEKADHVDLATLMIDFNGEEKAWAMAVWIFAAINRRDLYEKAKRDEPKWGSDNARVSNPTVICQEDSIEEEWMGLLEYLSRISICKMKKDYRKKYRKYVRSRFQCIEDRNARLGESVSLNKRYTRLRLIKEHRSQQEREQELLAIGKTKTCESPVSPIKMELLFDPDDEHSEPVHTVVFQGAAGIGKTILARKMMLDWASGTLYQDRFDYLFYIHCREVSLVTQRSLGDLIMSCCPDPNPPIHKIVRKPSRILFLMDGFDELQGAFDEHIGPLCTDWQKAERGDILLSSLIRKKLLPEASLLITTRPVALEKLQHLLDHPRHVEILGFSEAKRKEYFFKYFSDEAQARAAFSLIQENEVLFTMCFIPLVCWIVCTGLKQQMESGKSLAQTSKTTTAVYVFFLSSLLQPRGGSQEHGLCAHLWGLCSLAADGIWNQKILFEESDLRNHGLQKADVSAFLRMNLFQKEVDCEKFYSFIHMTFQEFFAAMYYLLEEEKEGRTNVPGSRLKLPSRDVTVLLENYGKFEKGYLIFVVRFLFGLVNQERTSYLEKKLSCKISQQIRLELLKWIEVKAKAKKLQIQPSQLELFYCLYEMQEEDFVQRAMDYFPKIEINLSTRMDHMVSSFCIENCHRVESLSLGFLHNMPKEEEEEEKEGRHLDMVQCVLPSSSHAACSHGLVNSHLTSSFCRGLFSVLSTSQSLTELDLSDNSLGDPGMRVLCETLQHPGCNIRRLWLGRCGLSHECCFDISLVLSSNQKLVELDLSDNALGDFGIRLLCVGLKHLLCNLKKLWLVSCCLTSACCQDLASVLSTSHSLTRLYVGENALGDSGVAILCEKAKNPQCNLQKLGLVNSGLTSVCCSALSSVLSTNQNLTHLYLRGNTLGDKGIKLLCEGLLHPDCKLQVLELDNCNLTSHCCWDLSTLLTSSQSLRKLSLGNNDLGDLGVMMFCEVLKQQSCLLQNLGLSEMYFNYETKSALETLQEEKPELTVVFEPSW
assay-details: IL-1β release assay, NLRP3 inflammasome activation in THP-1 cells
quantity-measured: IC50

Value of IC50 reported for the compound O=C(NS(=O)(=O)/C=C/c1nccs1)c1c2c(cc3c1OCC3)OCC2 [Compound 20] is > 1000 nM
